Target: T1, human Notch1 NRR_Avi_His recombinant protein (human, UniProt P46531 1434-1737)
T1 construct: Secreted from CHO-PACE cells; cleaved at S1 into an N-terminal ~26 kDa half (LNR-A, B, C, HD1) and a C-terminal ~12 kDa half (HD2 and tag) that stay associated non-covalently; written here as one chain; also called recombinant human Notch1 NRR; human Notch1 NRR immunogen
T1 sequence: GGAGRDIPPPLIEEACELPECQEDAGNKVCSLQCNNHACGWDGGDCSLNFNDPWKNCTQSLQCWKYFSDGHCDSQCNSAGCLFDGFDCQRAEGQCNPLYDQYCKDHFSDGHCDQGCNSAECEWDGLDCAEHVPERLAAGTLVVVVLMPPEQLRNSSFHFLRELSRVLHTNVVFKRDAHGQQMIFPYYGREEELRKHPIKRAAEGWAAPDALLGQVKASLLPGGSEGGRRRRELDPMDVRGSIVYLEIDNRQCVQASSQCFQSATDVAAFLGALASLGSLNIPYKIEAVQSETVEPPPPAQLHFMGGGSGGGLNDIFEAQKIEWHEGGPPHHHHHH
Assay: SPR (Biacore T100), antibody captured by anti-human IgG-Fc, NRR_Avi_His as analyte, 1:1 Langmuir model
Each item that follows carries a reported kon.

| binder | kon |
| --- | --- |
| rat 438-hIgG1 (antibody, V domains shown, also called r438-hIgG) VH: AVQLVESGGGLVQPGRSLKLSCTASGFTFSSFAMAWVRQAPTKGLEWVASISYGGADTYYRDSVKGRFTISRDNAKSSLYLQMDSLRSEDTSTYYCAKDLPYYGYTPFVMDAWGQGTSVTVSS VL: DIMLTQSPPTLSVTPGETISLSCRASQRINTDLHWYQQKPNESPRVLIKFASQTISGVPSRFSGSGSGTDFTLNINRVEPEDFSVYYCQQSNSWPYTFGAGTKLELK | 52700 M⁻¹ s⁻¹ |
| humanized 438 VH1.1/VL1.1 (antibody, human IgG1, V domains shown) VH: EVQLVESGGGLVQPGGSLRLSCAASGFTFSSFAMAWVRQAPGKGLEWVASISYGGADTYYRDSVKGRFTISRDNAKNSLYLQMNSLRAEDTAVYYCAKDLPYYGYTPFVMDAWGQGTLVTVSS VL: DIQLTQSPSSLSASVGDRVTITCRASQRINTDLHWYQQKPGKAPKVLIKFASQTISGVPSRFSGSGSGTDFTLTISSLQPEDFATYYCQQSNSWPYTFGQGTKLEIK | 43700 M⁻¹ s⁻¹ |
| humanized 438 VH1.1/VL1.3 (antibody, human IgG1, V domains shown) VH: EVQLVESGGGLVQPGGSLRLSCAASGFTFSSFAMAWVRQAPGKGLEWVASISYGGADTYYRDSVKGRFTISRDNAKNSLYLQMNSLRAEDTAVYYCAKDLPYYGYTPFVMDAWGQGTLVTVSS VL: DIQLTQSPSSLSASVGDRVTITCRASQRINTDLHWYQQKPGKAPKLLIYFASQTISGVPSRFSGSGSGTDFTLTISSLQPEDFATYYCQQSNSWPYTFGQGTKLEIK | 242000 M⁻¹ s⁻¹ |
| humanized 438 VH1.1/VL1.8 (antibody, human IgG1, kappa, V domains shown, full chains (VH1.1)-hIgG1-3M and (VL1.8)-hkappa) VH: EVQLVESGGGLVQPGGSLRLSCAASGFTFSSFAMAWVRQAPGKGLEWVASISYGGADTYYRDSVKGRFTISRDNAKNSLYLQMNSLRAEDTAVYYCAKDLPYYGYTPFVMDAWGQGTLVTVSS VL: DIQMTQSPSSLSASVGDRVTITCRASQRINTDLHWYQQKPGKAPKVLIKFASQTISGVPSRFSGSGSGTDFTLTISSLQPEDFATYYCQQSNSWPYTFGQGTKLEIKR | 214000 M⁻¹ s⁻¹ |
